experiment: Pharmacokinetics in rats; format: in vivo; conditions: plasma; rat; hydrochloride salt; iv 4.5 mg/kg; read-out: plasma Cl
measuredQuantity: clearance (L/h/kg)
All answers are understood in L/h/kg, so give the number only.

Consider CN1CCC(Nc2ccc3ncc(-c4ccc(Nc5ncccc5F)cc4)n3n2)CC1 . Its measured clearance is 1.68

Hey, just so you know, these numbers are from paper PMC4024065.
